# METHOD SUMMARY: VBP15-002 multiple ascending dose trial, PK and safety
# Type: in vivo, human
# CONDITION DETAILS: male, human, in vivo, oral; DMD patients aged 4 to <7 years, 0.25-6.0 mg/kg/day, 2 weeks dosing
QUANTITY NAME: half-life

QUERY: Returns the measured half-life for the input compound. Input: C[C@@H]1C[C@H]2[C@@H]3CCC4=CC(=O)C=C[C@]4(C)C3=CC[C@]2(C)[C@@]1(O)C(=O)CO [Vamorolone]
RESULT: ~2 h
